# testedOn: Calcium-dependent protein kinase 1 (Plasmodium falciparum (isolate 3D7)) (UniProt P62344)
# Sequence (P62344 whole entry, looked up): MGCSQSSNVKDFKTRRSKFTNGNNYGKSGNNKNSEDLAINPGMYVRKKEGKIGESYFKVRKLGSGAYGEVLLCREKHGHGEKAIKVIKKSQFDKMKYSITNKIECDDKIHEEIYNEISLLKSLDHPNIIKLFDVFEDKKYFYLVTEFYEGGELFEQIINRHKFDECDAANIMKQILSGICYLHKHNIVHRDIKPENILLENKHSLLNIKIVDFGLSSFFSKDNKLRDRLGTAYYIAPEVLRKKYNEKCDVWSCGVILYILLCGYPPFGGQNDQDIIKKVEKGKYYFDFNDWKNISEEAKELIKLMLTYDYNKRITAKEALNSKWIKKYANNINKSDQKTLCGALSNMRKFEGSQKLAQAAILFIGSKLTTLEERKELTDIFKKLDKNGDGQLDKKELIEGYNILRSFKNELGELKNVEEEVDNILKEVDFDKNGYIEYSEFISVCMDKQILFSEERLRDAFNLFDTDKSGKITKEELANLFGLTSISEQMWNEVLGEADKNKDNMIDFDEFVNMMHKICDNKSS
# assayDetails: PfCDPK1 kinase inhibitors, biochemical, TCAMS library (AID 1159585);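 also: inhibitors leave more ATP so luminescence rises with inhibition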
# particulars: recombinant PfCDPK1, Kinase-Glo ATP depletion luminescence
Results with a measured potency or affinity are listed apart. Active and inactive are the calls of the source. The limit is not given here; nearly all actives have IC50 up to about 0.98 µM.
measuredEndpoint: outcome

Here's what some known entries look like.
COc1cccc(CNC(=O)NC2CCN(c3ccnc(Nc4cc(OC)c(OC)c(OC)c4)n3)C2)c1 (centres undefined) :: inactive
CC(CCCCCC(=O)Nc1ccc(CC(C)NCCc2cccc(Cl)c2)cc1)NCCc1cccc(Cl)c1 (centres undefined) :: inactive
COc1cccc2c(NN=Cc3cccc(Cl)c3)cc(C)nc12 :: inactive
Cc1cc(N2CCCC2)nc(Nc2ccc(NC(=O)c3ccccc3C)cc2)n1 :: inactive

Kindly note the recorded outcome for `CC1CCN(c2nc(C(=O)Nc3ccc(F)cc3C(F)(F)F)c(C(C)C)s2)CC1` , which is inactive

* * *

For each entry below, report its growth inhibition value.
# assayDetails: inhibition of 3D7 malaria parasite growth – strain 3D7 (AID 2306);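 also: 0% = DMSO wells and 100% = chloroquine plus artemisinin control wells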
# particulars: P. falciparum 3D7 erythrocytic growth, LDH absorbance, 72 h; at 2 µM; active compounds read high
Give the number; % is assumed, so skip it.

Kindly note the recorded growth inhibition for `S=C(NCCN1CCOCC1)Nc1ccccc1` , which is 94

Kindly note the recorded growth inhibition for `COc1ccc(/C=C/c2ccc(-c3c(C)[nH]c(C)c(Cl)c3=O)cc2)cc1OC` , which is 97

Kindly note the recorded growth inhibition for CCCCN1C(=O)[C@H]2CC(=O)CC(C3CCCCC3)[C@H]2C1=O (some centres undefined) , which is 97

Kindly note the recorded growth inhibition for `CCc1sc(N2CCN(C)CC2)nc1C(=O)Nc1ccc(F)cc1C(F)(F)F` , which is 101

Kindly note the recorded growth inhibition for O=C(C=Cc1ccc(Cl)c(Cl)c1)NCCCCCN1CCCC(CCCNC(=O)[C@@H]2C[C@H]2c2ccccc2)C1 (some centres undefined) , which is 85

Kindly note the recorded growth inhibition for `O=C(/C=C/c1ccc(Cl)c(Cl)c1)NCCCCCCN1CCN(C(=O)Nc2ccc(Cl)c(Cl)c2)CC1` , which is 88

Kindly note the recorded growth inhibition for CC1CCCCN1Cc1cccc(-c2c[nH]c3nc(NC4CCCC4)ncc23)c1 (centres undefined) , which is 93

Kindly note the recorded growth inhibition for `O=C(Cc1cnc[nH]1)Nc1cccc(-c2ccc(-c3nc4ccc(F)cc4[nH]3)cc2)c1` , which is 100

Kindly note the recorded growth inhibition for COc1ccc2nccc([C@@H](O)CN3CCC(NC(=O)c4ccc(CN5CCN(c6cccc(C)c6)CC5C)cc4)CC3)c2c1 (some centres undefined) , which is 97

Kindly note the recorded growth inhibition for FC(F)(F)c1ccc2nc(-c3ccc(-c4cccc(CNCC5CCCO5)c4)cc3)[nH]c2c1 (centres undefined) , which is 101

Kindly note the recorded growth inhibition for `CC(C)(C)OC(=O)NCc1ccc(Nc2nnc(-c3ccc(OCC(=O)NCc4cc(C(F)(F)F)cc(C(F)(F)F)c4)c([N+](=O)[O-])c3)o2)cc1` , which is 97

Kindly note the recorded growth inhibition for CCC(C)NC(=O)Nc1ccc(-c2cccc(-c3nc4ccccc4[nH]3)c2)cc1 (centres undefined) , which is 94

Kindly note the recorded growth inhibition for OC1CCCN(Cc2ccc(-c3cccc(-c4nc5ccccc5[nH]4)c3)cc2)C1 (centres undefined) , which is 86

Kindly note the recorded growth inhibition for O=C(Nc1ccccc1Oc1ccccc1)NC1CCN(c2ccnc3cc(Cl)ccc23)C1 (centres undefined) , which is 99

Kindly note the recorded growth inhibition for NC(=O)c1cc(-c2ccccc2)cc2c(C3CCC(NCc4ccccc4)C3)c[nH]c12 (centres undefined) , which is 95

Kindly note the recorded growth inhibition for `COc1cc(Cc2cnc(N)nc2N)cc(OCC(C)(C)C(=O)O)c1OC` , which is 89

Kindly note the recorded growth inhibition for O=c1ccc2ncc(Cl)c3c2n1CC3CN1CCC(NCc2cc3c(cn2)OCCO3)CC1 (centres undefined) , which is 96

Kindly note the recorded growth inhibition for CC1CN(c2ccc(NC(=O)c3cccs3)cc2)CCN1Cc1cccc(F)c1 (centres undefined) , which is 96

Kindly note the recorded growth inhibition for `O=C(N[C@@H]1C[C@H]1c1ccccc1)N(CCCn1ccnc1)Cc1csc(-c2ccc(CNCc3ccccc3)cc2)n1` , which is 96

* * *

# assayDetails: inhibition of 3D7 malaria parasite growth – strain 3D7 (AID 2306);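 also: 0% = DMSO wells and 100% = chloroquine plus artemisinin control wells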
# particulars: P. falciparum 3D7 erythrocytic growth, LDH absorbance, 72 h; at 2 µM; active compounds read high
measuredEndpoint: growth inhibition (%)
Give the number; % is assumed, so skip it.

Kindly note the recorded growth inhibition for `O=C(NC1CCN(CCC[C@]2(c3ccc(Cl)c(Cl)c3)CCCN(C(=O)c3ccccc3)C2)CC1)c1ccc(Cl)cc1` , which is 95

Kindly note the recorded growth inhibition for `Cc1nnc2c(NC(=O)NC3CCCC3)cc3ccc(-c4cccc(CN5CCN(C)CC5)c4)cc3n12` , which is 91

Kindly note the recorded growth inhibition for `COC(=O)c1cccc(CNCc2ccc(-c3cccc(-c4nc5c(C)cccc5[nH]4)c3)cc2)c1` , which is 102

Kindly note the recorded growth inhibition for CCC(C)c1cccc(C(C)CC)c1OCCCON1C(N)=NC(N)=NC1(C)C (stereo not given) , which is 91

Kindly note the recorded growth inhibition for `O=C(NC1CCCCC1)N(Cc1ccc(-c2ccc(CNCc3ccc4c(c3)OCO4)cc2)cc1)C1CCN(Cc2ccccc2)CC1` , which is 102

* * *

For each entry below, report its inhibition value.
# assayDetails: human hepatoma cell viability loss – ATP luminescence, cytotoxicity control for P. falciparum antimalarial project, primary screen (AID 2303);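 also: 0% = DMSO wells and 100% = digitonin-killed cells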
# particulars: HepG2 viability, 24-48 h, at 10 µM, active compounds read high
Activity calls are given as the source filed them.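 How the source made its calls: active means inhibition above 50%; inactive means the rest.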

Kindly note the recorded inhibition for `CCCNC(=O)Nc1ccc(N(C)c2ccnc(NC3CC3)n2)cc1` , which is 28% (inactive)

Kindly note the recorded inhibition for `CCNc1cc(C)nc(Nc2ccc(C)cc2)n1` , which is 12% (inactive)

Kindly note the recorded inhibition for `CN1CCCN(Cc2ccc(-c3ccc(NC(=O)c4cccc(C#N)c4)cc3)cc2)CC1` , which is 46% (inactive)

Kindly note the recorded inhibition for `CCSc1ccccc1CON1C(N)=NC(N)=NC1(C)C` , which is 62% (active)

Kindly note the recorded inhibition for `C[C@H]1CN(Cc2cccc(-c3cc(CNC(=O)c4cccc(CN5CCN(CCOc6ccccc6)CC5)c4)ccc3F)c2)CCN1` , which is 59% (active)

Kindly note the recorded inhibition for Cc1cccc2[nH]c(-c3ccc(-c4ccc(CN5CCCC5CN)cc4)cc3)nc12 (stereo not given) , which is 28% (inactive)

Kindly note the recorded inhibition for `COc1cc2ncnc(Nc3ccc(OCc4ccccc4)c(I)c3)c2cc1OC` , which is 11% (inactive)

Kindly note the recorded inhibition for `COc1cccc(-c2cc3nc4c(c(NCCCn5ccnc5)n3n2)CCCC4)c1` , which is 10% (inactive)

Kindly note the recorded inhibition for O=C(CCC1CCCC1)N(Cc1ccc(-c2ccc(CNCCc3ccccn3)cc2)cc1)CC1CCCCN1 (stereo not given) , which is 32% (inactive)

Kindly note the recorded inhibition for `Cc1nn(-c2cccc(C(F)(F)F)c2)c2sc(C(=O)NC3CCN(C(C)C)CC3)cc12` , which is 98% (active)

* * *

# testedOn: Plasmodium falciparum protein kinase 6 (PK6, PF3D7_1337100) (UniProt Q8IDW1)
# assayDetails: PfPK6 kinase inhibitors, biochemical, TCAMS library (AID 1159586)
# particulars: recombinant PfPK6, Kinase-Glo ATP depletion luminescence
Measured potencies and affinities stand elsewhere. The source made the active and inactive calls. No rule for the calls is given here.
measuredEndpoint: outcome

Here's what some known entries look like.
CCCNC(=O)Nc1cc2cc(-c3cccc(CN4CCCCC4)c3)ccc2n2c(C)nnc12 :: inactive
Cc1ccc2[nH]c3c(c2c1)CC(C(=O)NCCC(C)C)NC31CCN(Cc2ccccc2)CC1 (centres undefined) :: inactive
CN(Cc1cccc(O)c1)C1CCN(c2cc(NC(=O)c3cccc(F)c3)ccn2)CC1 :: inactive
Cc1cccc2[nH]c(-c3cccc(-c4cccc(NC(=O)C(C)CN(C)C)c4)c3)nc12 (centres undefined) :: inactive
NC(N)=Nc1ccc(OCCCCCOc2ccc(N=C(N)N)cc2Br)c(Br)c1 :: inactive
CC(C)CNC(=O)c1cncc(-c2ccc(CN3CCC(N4CCCC4)CC3)cc2)c1 :: inactive
CN1CCN(CCCN(Cc2ccc(-c3ccc(CNCc4ccc5c(c4)OCO5)cc3)cc2)C(=O)Nc2ccccc2)CC1 :: inactive
Nc1ccc2nc(C=Cc3ccccc3)[nH]c2c1 :: inactive
O=C(NCC1Cc2cc(Oc3ccccc3)ccc2O1)c1ccc([N+](=O)[O-])o1 (centres undefined) :: inactive
O=C(NCC1COc2ccccc2O1)c1cnc2c(c1)nc(-c1cnc(-c3ccccc3)[nH]1)n2CCSCc1c(F)cccc1Cl (centres undefined) :: inactive

Kindly note the recorded outcome for `COc1ccc2nccc([C@@H](O)CN3CCC(NCc4ccc5c(n4)NCCC5)CC3)c2c1` , which is inactive

Kindly note the recorded outcome for `Cn1cnc2c(SCc3ccccc3OCc3ccccc3)ncnc21` , which is inactive

Kindly note the recorded outcome for N#Cc1ccc2c(c1)CCN(CCC1CCC(NC(=O)/C=C/c3cc(Br)cs3)CC1)CC2 (centres undefined) , which is inactive
